Task for the reader: assign each of the following compounds its reported thermal shift delta Tm.
- Tested on: LOC_OS01G48390-cb002;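 further: purified Escherichia coli-expressed rice kinase domain construct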
- test-details: thermal shift delta Tm vs DMSO control; higher = stronger stabilization (binding)
- study-conditions: 12.5 µM; protein concentration 2 µM
Form entry: value (°C) — number only.

Form field, thermal shift delta Tm with LOC_OS01G48390-cb002, item `Cc1c(NC(=O)OC[C@@H]2COCCN2)cn2ncnc(Nc3ccc4c(cnn4Cc4cccc(F)c4)c3)c12` : 0.07

The reported LOC_OS01G48390-cb002 thermal shift delta Tm of `Cc1ccc(-n2nc(C(C)(C)C)cc2NC(=O)Nc2ccc(OCCN3CCOCC3)c3ccccc23)cc1` is 0.73

Log: LOC_OS01G48390-cb002, compound `Nc1ccc(C(=O)Nc2cccc(-c3nc(N4CCOCC4)c4oc5ncccc5c4n3)c2)cn1` , thermal shift delta Tm = 0.28
